# measurement.protocol: Aqueous solubility of compound at pH 7.4
# Assay type: physicochemical
property.label: solubility (µM)

Would you please look over these solved cases?
- CCCC[C@H](NC(=O)c1[nH]c2c(c1C)C(=O)CC(C)(C)C2)C(=O)Nc1ccc(OC2CCN(C)CC2)nc1: 200
- CCCCC(NC(=O)c1[nH]c2c(c1C)C(=O)CC(C)(C)C2)C(=O)Nc1ccccc1 (racemic): 20
- CCCC[C@H](NC(=O)c1[nH]c2c(c1C)C(=O)CC(C)(C)C2)C(=O)Nc1ccc(OC2CCN(C)CC2)cc1: 200

[A] CCCC[C@H](NC(=O)c1[nH]c2c(c1C)C(=O)CC(C)(C)C2)C(=O)NCc1ccc(CN(C)C)cc1
[B] CCCCC(NC(=O)c1[nH]c2c(c1C)C(=O)CC(C)(C)C2)C(=O)Nc1ccc(CCN2CCOCC2)cc1 (racemic)
Decide: A or B , by lowest recorded solubility. Indicate which entry you chose by stating its label.
B

[A] CCCCC(NC(=O)c1[nH]c2c(c1C)C(=O)CC(C)(C)C2)C(=O)Nc1ccc(CCN2CCS(=O)(=O)CC2)cc1 (racemic)
[B] CCCCC(NC(=O)c1[nH]c2c(c1C)C(=O)CC(C)(C)C2)C(=O)Nc1ccc(CN2CCC(F)(F)CC2)cc1 (racemic)
[C] CCCCC(NC(=O)c1[nH]c2c(c1C)C(=O)CC(C)(C)C2)C(=O)NCc1ccccc1 (racemic)
Falling order of solubility, please. # answer = labels listed in requested order
A, B, C

[1] CCCCC(NC(=O)c1[nH]c2c(c1C)C(=O)CC(C)(C)C2)C(=O)Nc1ccc(CCN2CCCCC2)cc1 (racemic)
[2] CCCCC(NC(=O)c1[nH]c2c(c1C)C(=O)CC(C)(C)C2)C(=O)Nc1ccc(CCN2CCC(F)(F)CC2)cc1 (racemic)
[3] CCCC[C@H](NC(=O)c1[nH]c2c(c1C)C(=O)CC(C)(C)C2)C(=O)Nc1ccccc1
Falling order of solubility, please. # answer = labels listed in requested order
1, 3, 2
(1: 197 µM, 3: 7 µM, 2: 2.3 µM)

* * *

# measurement.protocol: Metabolic stability in mouse liver microsomes assessed as compound remaining measured after 60 mins
# Format: ADME, Microsome
# measurement.parameters: read-out: Stability
property.label: remaining at 1 h (%)

- CCCC[C@H](NC(=O)c1[nH]c2c(c1C)C(=O)CC(C)(C)C2)C(=O)Nc1ccc(OC2CCN(C)CC2)cc1: 58
- CCCC[C@H](NC(=O)c1[nH]c2c(c1C)C(=O)CC(C)(C)C2)C(=O)NCc1ccc(CN(C)C)cc1: 65

[A] CCCC[C@H](NC(=O)c1[nH]c2c(c1C)C(=O)CC(C)(C)C2)C(=O)Nc1ccc(OC2CCN(C)CC2)nc1
[B] CCCC[C@H](NC(=O)c1[nH]c2c(c1C)C(=O)CC(C)(C)C2)C(=O)Nc1ccccc1
Decide: A or B , by lowest recorded remaining at 1 h. Indicate which entry you chose by stating its label.
B
(B: 1.1%, A: 53%)

* * *

# measured.on: Histone-lysine N-methyltransferase EHMT2 (Homo sapiens, UniProt Q96KQ7)
# Sequence (Q96KQ7 whole entry): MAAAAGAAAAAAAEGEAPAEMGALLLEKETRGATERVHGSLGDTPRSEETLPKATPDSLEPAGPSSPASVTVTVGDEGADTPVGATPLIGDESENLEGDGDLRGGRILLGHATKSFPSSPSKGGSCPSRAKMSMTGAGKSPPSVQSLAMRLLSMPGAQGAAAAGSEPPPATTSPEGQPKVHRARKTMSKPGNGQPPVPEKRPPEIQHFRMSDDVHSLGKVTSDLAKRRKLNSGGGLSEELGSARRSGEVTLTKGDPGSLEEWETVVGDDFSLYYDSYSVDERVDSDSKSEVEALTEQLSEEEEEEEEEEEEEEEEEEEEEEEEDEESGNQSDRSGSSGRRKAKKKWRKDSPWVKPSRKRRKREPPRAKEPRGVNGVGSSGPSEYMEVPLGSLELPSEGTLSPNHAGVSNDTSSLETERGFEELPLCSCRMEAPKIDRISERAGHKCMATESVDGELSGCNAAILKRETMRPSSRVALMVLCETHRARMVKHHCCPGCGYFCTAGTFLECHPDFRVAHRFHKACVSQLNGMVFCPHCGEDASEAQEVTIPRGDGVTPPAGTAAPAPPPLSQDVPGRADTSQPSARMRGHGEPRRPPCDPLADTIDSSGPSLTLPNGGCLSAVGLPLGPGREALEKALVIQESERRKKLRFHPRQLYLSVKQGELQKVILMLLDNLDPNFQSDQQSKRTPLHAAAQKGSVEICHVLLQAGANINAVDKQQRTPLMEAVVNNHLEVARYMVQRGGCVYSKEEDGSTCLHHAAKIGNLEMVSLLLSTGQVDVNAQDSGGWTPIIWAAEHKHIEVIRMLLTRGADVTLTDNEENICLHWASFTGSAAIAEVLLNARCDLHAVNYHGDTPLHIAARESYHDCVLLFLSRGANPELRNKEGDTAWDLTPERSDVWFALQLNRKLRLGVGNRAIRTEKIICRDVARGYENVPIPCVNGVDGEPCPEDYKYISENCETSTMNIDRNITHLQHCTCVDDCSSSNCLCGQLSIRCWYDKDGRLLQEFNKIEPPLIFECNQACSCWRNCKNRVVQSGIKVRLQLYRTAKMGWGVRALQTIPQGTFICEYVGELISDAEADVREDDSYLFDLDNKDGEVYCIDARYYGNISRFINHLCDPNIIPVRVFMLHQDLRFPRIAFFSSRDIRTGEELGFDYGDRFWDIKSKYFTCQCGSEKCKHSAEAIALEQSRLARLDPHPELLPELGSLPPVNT
property.label: pKd
When answering, recall that pKd equals minus log10 of the concentration in mol/L, and write that number alone.

Using Histone-lysine N-methyltransferase EHMT2 (Homo sapiens, UniProt Q96KQ7) as the test system, report measured pKd of Cc1c(C(=O)N[C@@H](CCC2CC2)C(=O)Nc2ccc(C#N)cc2)[nH]c2c1C(=O)CC(C)(C)C2 .
6.12

Where do these numbers come from? They come from ChEMBL document CHEMBL5579841.
